FACS Emax ratio to BG87P for assorted binders
- Experimental System: T1, cyno CLDN6 (cyno)
- T1 construct: whole, on cells; also called cynomolgus CLDN6
- Protocol Details: flow cytometry, HEK293T-cyno-CLDN6 cells; ratio to chBG87P
Lab note: record the figure alone, no unit after it.

Asked: Data request, read-out FACS Emax ratio to BG87P, for anti-CLDN6 chimeric BG87P (antibody, V domains shown, expressed in HEK293T; also called chBG87P; ChBG87P) VH: QIQLQQSGPELVKPGASVKISCKASGYSFTDYHINWVKQRPGQGLEWIGWIYPGSGYTKYNEKFKVKATLTVDTSSSTAYMHLTSLTSEDSAVYFCARSGIYHYVSSYYFDHWGQGTTLTVSS VL: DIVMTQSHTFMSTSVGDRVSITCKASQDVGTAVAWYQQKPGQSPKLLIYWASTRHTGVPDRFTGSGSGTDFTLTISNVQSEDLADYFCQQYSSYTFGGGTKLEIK
Given back: 1
